TARGET OR SYSTEM: Transitional endoplasmic reticulum ATPase (Homo sapiens)
PROCEDURE DETAILS: p97 ATPase inhibitors, SAR follow-up, biochemical, hit optimization round 2 (AID 488828)
MEASUREMENT CONDITIONS: purified p97 ATPase, Kinase-Glo ATP luminescence
Calls of active or inactive are those of the source.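 The calls were made as follows: active = IC50 at or below 10 µM; inactive = the rest.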
Outcomes you can answer with include only these: active, inactive

See these solved cases before continuing.
[
  {
    "SMILES INPUT": "Clc1nc(NCc2ccc(Br)cc2)c2ccccc2n1",
    "QUALITATIVE LABEL": "inactive"
  },
  {
    "SMILES INPUT": "Fc1cccc(CNc2nc(Nc3cccc(Cl)c3)nc3ccccc23)c1",
    "QUALITATIVE LABEL": "active"
  },
  {
    "SMILES INPUT": "c1ccc(CNc2nc(N3CCc4ccccc43)nc3ccccc23)cc1",
    "QUALITATIVE LABEL": "active"
  },
  {
    "SMILES INPUT": "COc1ccc(CNc2nc(Cl)nc3ccccc23)cc1",
    "QUALITATIVE LABEL": "inactive"
  },
  {
    "SMILES INPUT": "CC(=O)Nc1ccc(NC(=O)c2ccccc2F)cc1",
    "QUALITATIVE LABEL": "inactive"
  }
]

Let's switch to this molecule now.
Look up the recorded call for `Cc1cccc(CNc2nc(Nc3cccc(Cl)c3)nc3ccccc23)c1` in this test.
active

----------
TARGET OR SYSTEM: Transitional endoplasmic reticulum ATPase (Homo sapiens) (UniProt P55072)
Sequence (P55072 whole entry, looked up): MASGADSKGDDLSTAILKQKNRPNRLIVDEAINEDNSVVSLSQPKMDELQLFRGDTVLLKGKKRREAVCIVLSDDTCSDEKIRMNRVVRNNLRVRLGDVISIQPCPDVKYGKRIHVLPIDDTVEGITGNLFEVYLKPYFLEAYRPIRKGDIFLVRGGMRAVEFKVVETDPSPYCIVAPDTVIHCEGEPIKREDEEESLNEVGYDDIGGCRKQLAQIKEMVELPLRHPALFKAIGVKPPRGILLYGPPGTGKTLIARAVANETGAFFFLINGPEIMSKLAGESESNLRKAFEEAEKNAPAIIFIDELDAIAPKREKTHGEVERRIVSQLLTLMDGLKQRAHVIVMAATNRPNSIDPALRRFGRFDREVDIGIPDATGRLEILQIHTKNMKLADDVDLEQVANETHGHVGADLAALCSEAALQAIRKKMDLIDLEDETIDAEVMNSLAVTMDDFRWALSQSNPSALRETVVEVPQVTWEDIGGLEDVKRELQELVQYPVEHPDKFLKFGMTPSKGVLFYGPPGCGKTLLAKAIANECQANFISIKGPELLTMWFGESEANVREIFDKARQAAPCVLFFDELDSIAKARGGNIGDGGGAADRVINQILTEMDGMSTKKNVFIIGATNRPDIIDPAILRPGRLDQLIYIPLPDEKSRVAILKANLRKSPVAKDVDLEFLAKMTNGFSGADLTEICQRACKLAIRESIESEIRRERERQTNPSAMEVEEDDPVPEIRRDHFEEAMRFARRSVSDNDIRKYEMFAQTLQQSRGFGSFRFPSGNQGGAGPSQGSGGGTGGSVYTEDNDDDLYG
PROCEDURE DETAILS: p97 ATPase inhibitors, SAR follow-up, biochemical, hit optimization round 2 (AID 488828)
MEASUREMENT CONDITIONS: purified p97 ATPase, Kinase-Glo ATP luminescence
The source made the active and inactive calls.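 The calls were made as follows: active = IC50 at or below 10 µM; inactive = the rest.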
I would appreciate it if you answered using one of these outcomes: active, inactive

Recorded results for 3 compounds are shown here.
[
  {
    "COMPOUND": "Cc1ccc(CNc2nc(Cl)nc3ccccc23)cc1",
    "QUALITATIVE LABEL": "inactive"
  },
  {
    "COMPOUND": "CCN(CC)c1ccc2cc(-c3nc4ccccc4[nH]3)c(=O)oc2c1",
    "QUALITATIVE LABEL": "active"
  },
  {
    "COMPOUND": "CC(C)(C)NC(=O)Nc1ccc2nccnc2c1",
    "QUALITATIVE LABEL": "inactive"
  }
]

Would you mind telling me which call this test gave O=C1C(C=NCC2CCCO2)=C(O)c2ccccc21 (stereo unspecified) ?
inactive

----------
TARGET OR SYSTEM: Transitional endoplasmic reticulum ATPase (Homo sapiens) (UniProt P55072)
PROCEDURE DETAILS: p97 ATPase inhibitors, SAR follow-up, biochemical, hit optimization round 2 (AID 488828)
MEASUREMENT CONDITIONS: purified p97 ATPase, Kinase-Glo ATP luminescence
Calls of active or inactive are those of the source.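 Rule for the calls: active = IC50 at or below 10 µM; inactive = the rest.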
// one of t for active, f for inactive, no free text

The following compounds have reported results that may help.
[
  {
    "SMILES INPUT": "Cc1c(Cl)cccc1Nc1nc(NCc2ccccc2)c2ccccc2n1",
    "TARGET OR SYSTEM": "Transitional endoplasmic reticulum ATPase (Homo sapiens) (UniProt P55072)",
    "QUALITATIVE LABEL": "t"
  },
  {
    "SMILES INPUT": "COc1ccc(Cl)cc1Nc1nc(NCc2ccccc2)c2ccccc2n1",
    "TARGET OR SYSTEM": "Transitional endoplasmic reticulum ATPase (Homo sapiens) (UniProt P55072)",
    "QUALITATIVE LABEL": "t"
  },
  {
    "SMILES INPUT": "Cc1cccc(CNc2nc(Cl)nc3ccccc23)c1",
    "TARGET OR SYSTEM": "Transitional endoplasmic reticulum ATPase (Homo sapiens) (UniProt P55072)",
    "QUALITATIVE LABEL": "f"
  },
  {
    "SMILES INPUT": "CN1CCN(S(=O)(=O)c2ccc(NC(=O)c3cccc(S(=O)(=O)N4CCCC4)c3)cc2)CC1",
    "TARGET OR SYSTEM": "Transitional endoplasmic reticulum ATPase (Homo sapiens) (UniProt P55072)",
    "QUALITATIVE LABEL": "f"
  },
  {
    "SMILES INPUT": "Clc1ccc(CNc2nc(Cl)nc3ccccc23)cc1",
    "TARGET OR SYSTEM": "Transitional endoplasmic reticulum ATPase (Homo sapiens) (UniProt P55072)",
    "QUALITATIVE LABEL": "f"
  }
]

GET /call?item= `COc1ccc(F)cc1Nc1nc(NCc2ccccc2)c2ccccc2n1` returns the recorded outcome of this test.
t

Tell me the recorded outcome of this test for `N#Cc1ccc2c(NCc3ccccc3)nc(NCc3ccccc3)nc2c1` .
f

Returns: the outcome recorded for `Cc1c(F)cccc1Nc1nc(NCc2ccccc2)c2ccccc2n1` in this assay.
t

----------
TARGET OR SYSTEM: Transitional endoplasmic reticulum ATPase (Homo sapiens)
PROCEDURE DETAILS: p97 ATPase inhibitors, SAR follow-up, biochemical, hit optimization round 2 (AID 488828)
MEASUREMENT CONDITIONS: purified p97 ATPase, Kinase-Glo ATP luminescence
The source made the active and inactive calls.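 The calls were made as follows: active = IC50 at or below 10 µM; inactive = the rest.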
Use one of these outcomes when replying: active, inactive

# count of solved cases: 4
[
  {
    "SMILES INPUT": "Clc1cccc(CNc2nc(Cl)nc3ccccc23)c1",
    "QUALITATIVE LABEL": "inactive"
  },
  {
    "SMILES INPUT": "Clc1cccc(Nc2nc(NCc3cccc(Br)c3)c3ccccc3n2)c1",
    "QUALITATIVE LABEL": "active"
  },
  {
    "SMILES INPUT": "c1ccc(CNc2nc(N3CCOc4ccccc43)nc3ccccc23)cc1",
    "QUALITATIVE LABEL": "active"
  },
  {
    "SMILES INPUT": "Clc1cccc(Nc2nc(NCc3ccccc3Br)c3ccccc3n2)c1",
    "QUALITATIVE LABEL": "active"
  }
]

Outcome logged for `c1ccc(Nc2nc(Nc3ccccc3)c3ccccc3n2)cc1` in this assay:
active

Please share the test call associated with `CC1(C)N(O)CC(c2cccs2)=[N+]1[O-]` .
inactive

Any idea what this test logged for `Clc1ccc2nc(NCc3ccccc3)nc(NCc3ccccc3)c2c1` ?
active

For this compound, state the assay outcome: `CC(C)Sc1oc(-c2ccco2)nc1S(=O)(=O)c1ccc(F)cc1`
active

----------
TARGET OR SYSTEM: Transitional endoplasmic reticulum ATPase (Homo sapiens)
PROCEDURE DETAILS: p97 ATPase inhibitors, SAR follow-up, biochemical, hit optimization round 2 (AID 488828)
MEASUREMENT CONDITIONS: purified p97 ATPase, Kinase-Glo ATP luminescence
Activity calls are given as the source filed them.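 How the source made its calls: active means IC50 at or below 10 µM; inactive means the rest.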
Choose the fitting class; nothing outside T = active, F = inactive is accepted.

GET /call?item= `Clc1ccc(CNc2nc(Nc3cccc(Cl)c3)nc3ccccc23)cc1` returns the recorded outcome of this test.
T

What did the test return for `COc1ccc(CNc2nc(Nc3cccc(Cl)c3)nc3ccccc23)cc1` ?
T

Hey, what did the test say about `COc1cccc2c(NCc3ccccc3)nc(NCc3ccccc3)nc12` ?
T

What is the recorded call for this compound in the test? `O=C(NCc1ccco1)c1cc(S(=O)(=O)N2CCOCC2)ccc1Cl`
F
